Value source: patent US20080015146A1

Some compounds, each annotated with its measured pIC50.
Biological target: DPP-IV (Homo sapiens, UniProt P27487)
Construct: Soluble human DPP-IV lacking the transmembrane anchor (Gly31-Pro766); Pre-Pro-alpha-mating factor secretion leader (N, cleaved yes)
Sequence (P27487 31-766): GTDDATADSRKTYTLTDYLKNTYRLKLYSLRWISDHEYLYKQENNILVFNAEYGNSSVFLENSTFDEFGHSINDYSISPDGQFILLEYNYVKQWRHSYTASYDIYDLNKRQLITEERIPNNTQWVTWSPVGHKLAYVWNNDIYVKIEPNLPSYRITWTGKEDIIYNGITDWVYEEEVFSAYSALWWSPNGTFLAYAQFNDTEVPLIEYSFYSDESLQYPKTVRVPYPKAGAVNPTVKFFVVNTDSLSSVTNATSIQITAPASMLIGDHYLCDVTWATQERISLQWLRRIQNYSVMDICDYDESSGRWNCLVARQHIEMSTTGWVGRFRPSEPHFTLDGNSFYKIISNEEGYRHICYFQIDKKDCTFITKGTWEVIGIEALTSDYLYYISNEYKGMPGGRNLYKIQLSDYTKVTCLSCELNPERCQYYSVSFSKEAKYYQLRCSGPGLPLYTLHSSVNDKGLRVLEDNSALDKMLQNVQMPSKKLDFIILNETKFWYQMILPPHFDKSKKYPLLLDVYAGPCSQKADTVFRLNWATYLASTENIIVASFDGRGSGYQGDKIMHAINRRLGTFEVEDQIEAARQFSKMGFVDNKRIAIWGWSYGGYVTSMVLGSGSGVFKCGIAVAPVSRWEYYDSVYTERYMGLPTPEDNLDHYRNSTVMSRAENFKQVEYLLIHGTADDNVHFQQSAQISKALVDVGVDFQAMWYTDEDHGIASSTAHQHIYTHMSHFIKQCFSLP
Test: Continuous fluorimetric assay of inhibition of DPP-IV peptidase activity (cleavage of Gly-Pro-AMC)
Conditions: substrate Gly-Pro-AMC 16 μM, pH 7.4, 25° C., 1% DMSO; assays carried out with human and porcine DPP-IV (comparable activities)
pIC50: −log10 of the molar value. Structures can show the parent of a compound that is named as a salt.

Worked examples follow.
- compound: "N[C@@H](CC(=O)N1CC(N2CCC(C(F)(F)F)CC2)C1)Cc1ccccc1F [Example 50]"
  assay.target: "DPP-IV (Homo sapiens, UniProt P27487)"
  result: "5.70 to 6.00"
- compound: "CS(=O)(=O)c1ccc(-c2noc([C@@H]3CCCN3C(=O)C[C@H](N)Cc3ccccc3F)n2)cc1 [Example 4, hydrochloride]"
  assay.target: "DPP-IV (Homo sapiens, UniProt P27487)"
  result: "> 7.00"
- compound: "N[C@@H](CC(=O)N1CCC[C@H]1c1nc(-c2cccc(F)c2)no1)Cc1ccccc1F [Example 3, hydrochloride]"
  assay.target: "DPP-IV (Homo sapiens, UniProt P27487)"
  result: "> 7.00"
- compound: "N[C@@H](CC(=O)N1CCC[C@H]1c1cn(-c2ccccc2)nn1)Cc1ccccc1F [Example 42, formate salt]"
  assay.target: "DPP-IV (Homo sapiens, UniProt P27487)"
  result: "6.00 to 7.00"
- compound: "N[C@@H](CC(=O)N1CC(n2nccc2C2CC2)C1)Cc1cc(F)c(F)cc1F [Example 56]"
  assay.target: "DPP-IV (Homo sapiens, UniProt P27487)"
  result: "> 7.00"

Qu. Which pIC50 is reported for this compound? COCC(C)(C)c1noc([C@@H]2CCCN2C(=O)C[C@H](N)Cc2cc(F)c(F)cc2F)n1 [Example 24, formate salt]
Ans. > 7.00

Qu. Also check N[C@@H](CC(=O)N1CCC[C@H]1c1ncc(-c2ccccc2)[nH]1)Cc1ccccc1F [Example 41, formate salt]
Ans. 6.00 to 7.00
